Test system: pPKB S473 in A2058 cells
Test: In-cell Western blot, pPKB S473
Type: cell-based
Conditions: Homo sapiens, 1 hour treatment, signal normalized to α-tubulin
Quantity measured: IC50 (nM)
Report as a plain number; the unit nM is understood.

[ask] What value of measured IC50 is listed for `C[C@@H]1COCCN1c1nc(-c2cnc(N)cc2C(F)F)nc(-c2cnc(N)cc2C(F)F)n1` ?
[reply] 383

---

Target: P110α (Homo sapiens)
Sequence (P42336 whole entry, species assumed): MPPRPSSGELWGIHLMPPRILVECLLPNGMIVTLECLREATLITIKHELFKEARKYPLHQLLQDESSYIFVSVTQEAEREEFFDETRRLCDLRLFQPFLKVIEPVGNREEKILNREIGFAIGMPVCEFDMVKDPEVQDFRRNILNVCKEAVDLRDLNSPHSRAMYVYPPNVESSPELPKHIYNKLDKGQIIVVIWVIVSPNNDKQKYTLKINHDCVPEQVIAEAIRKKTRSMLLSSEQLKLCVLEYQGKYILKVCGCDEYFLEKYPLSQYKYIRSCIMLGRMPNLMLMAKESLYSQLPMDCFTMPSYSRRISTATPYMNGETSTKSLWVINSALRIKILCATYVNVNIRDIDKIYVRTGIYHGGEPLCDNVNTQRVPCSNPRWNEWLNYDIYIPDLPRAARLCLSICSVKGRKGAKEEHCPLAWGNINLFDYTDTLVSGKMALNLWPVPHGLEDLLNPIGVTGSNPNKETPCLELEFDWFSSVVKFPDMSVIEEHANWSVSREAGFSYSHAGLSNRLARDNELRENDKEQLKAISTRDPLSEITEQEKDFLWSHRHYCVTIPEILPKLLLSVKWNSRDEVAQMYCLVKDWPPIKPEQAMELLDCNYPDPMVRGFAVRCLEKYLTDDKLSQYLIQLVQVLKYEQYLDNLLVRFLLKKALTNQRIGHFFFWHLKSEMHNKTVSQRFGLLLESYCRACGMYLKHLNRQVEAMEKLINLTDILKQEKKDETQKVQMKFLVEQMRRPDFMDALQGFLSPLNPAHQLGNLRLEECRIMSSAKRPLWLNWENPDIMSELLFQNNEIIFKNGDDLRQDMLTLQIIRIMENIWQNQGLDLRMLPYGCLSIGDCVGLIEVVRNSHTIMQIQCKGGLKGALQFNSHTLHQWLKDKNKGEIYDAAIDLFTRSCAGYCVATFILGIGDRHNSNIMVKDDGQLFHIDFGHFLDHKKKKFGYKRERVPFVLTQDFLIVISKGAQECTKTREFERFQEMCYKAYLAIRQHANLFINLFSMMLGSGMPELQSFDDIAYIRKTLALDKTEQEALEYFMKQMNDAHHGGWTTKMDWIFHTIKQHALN
Sequence (P27986 whole entry partner, species assumed): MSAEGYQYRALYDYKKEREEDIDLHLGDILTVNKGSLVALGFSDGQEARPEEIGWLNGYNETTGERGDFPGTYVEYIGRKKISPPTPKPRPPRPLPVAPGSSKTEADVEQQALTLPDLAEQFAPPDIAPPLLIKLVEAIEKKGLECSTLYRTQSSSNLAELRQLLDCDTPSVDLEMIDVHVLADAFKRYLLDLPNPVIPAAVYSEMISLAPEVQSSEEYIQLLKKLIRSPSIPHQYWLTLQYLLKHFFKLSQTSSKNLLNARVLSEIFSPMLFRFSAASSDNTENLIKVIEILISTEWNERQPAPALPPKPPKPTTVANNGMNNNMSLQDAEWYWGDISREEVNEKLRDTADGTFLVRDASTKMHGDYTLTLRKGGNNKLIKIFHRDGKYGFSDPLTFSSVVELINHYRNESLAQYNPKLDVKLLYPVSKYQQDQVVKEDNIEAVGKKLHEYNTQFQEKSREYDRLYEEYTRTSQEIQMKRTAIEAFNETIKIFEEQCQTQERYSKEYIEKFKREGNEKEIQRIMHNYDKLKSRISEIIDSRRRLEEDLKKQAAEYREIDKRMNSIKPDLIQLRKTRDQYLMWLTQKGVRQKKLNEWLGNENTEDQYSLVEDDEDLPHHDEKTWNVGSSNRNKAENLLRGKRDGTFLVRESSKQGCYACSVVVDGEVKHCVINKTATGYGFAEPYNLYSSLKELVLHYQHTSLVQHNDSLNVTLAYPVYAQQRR
Experiment: P110α IC50 (Table 12, comparative biological activities)
Assay type: biochemical
Quantity measured: IC50 (nM)
Report as a plain number; the unit nM is understood.

[ask] What value of measured IC50 is listed for C[C@H]1OC(=O)N(c2nc(-c3cnc(N)nc3C(F)(F)F)nc(N3CCOCC3)n2)[C@H]1CO [reference compound] ?
[reply] 1860

Every entry's value here was drawn from patent US11186591B2.
